Reported AD38 Viability Normalized Result (CPAM/DMSO %) at 10 μM values for the following molecules.
test system: AD38 cells; experiment: AD38 viability normalized to DMSO control; format: cell-based; conditions: 10 μM compound, vs DMSO control; Table 9
recorded.metric: AD38 Viability Normalized Result (CPAM/DMSO %) at 10 μM

molecule: CCOC(=O)COc1ccc(S(=O)(=O)N2CCN(c3nc(C)cc(Nc4ccc(F)cc4)n3)CC2)cc1 [Compound 1385]
target.under.test: AD38 cells
reported.result: 94

molecule: CC(C)(Oc1ccc(S(=O)(=O)N2CCN(c3nc(Nc4ccc(F)cc4)cc(C(F)(F)F)n3)CC2)cc1)C(=O)O [Compound 1405]
target.under.test: AD38 cells
reported.result: 84

molecule: N#Cc1ccc(Nc2cc(-c3nccs3)nc(N3CCN(S(=O)(=O)c4ccc(OC(F)(F)F)cc4)CC3)n2)cc1 [Compound 1364]
target.under.test: AD38 cells
reported.result: 100

molecule: Cc1cc(Nc2ccc(F)cc2)nc(N2CCN(S(=O)(=O)c3ccc(CC(=O)O)cc3)CC2)n1 [Compound 1392]
target.under.test: AD38 cells
reported.result: 99

molecule: O=S(=O)(c1ccccc1)N1CCN(c2nc(Nc3ccc(F)cc3)cc(-c3nccs3)n2)CC1 [Compound 1360]
target.under.test: AD38 cells
reported.result: 94

molecule: N#Cc1ccc(Nc2cc(-c3nccs3)nc(N3CCN(S(=O)(=O)c4ccccc4)CC3)n2)cc1 [Compound 1355]
target.under.test: AD38 cells
reported.result: 103

molecule: Cc1cc(Nc2ccc(F)cc2)nc(N2CCN(S(=O)(=O)c3ccc(O[C@@H](C)C(=O)O)cc3)CC2)n1 [Compound 1396]
target.under.test: AD38 cells
reported.result: 100

molecule: COc1ccc(S(=O)(=O)N2CCN(c3nc(C)cc(Nc4ccc(C#N)cc4)n3)CC2=O)cc1 [Compound 1366]
target.under.test: AD38 cells
reported.result: 108

molecule: O=S(=O)(c1ccc(OC(F)(F)F)cc1)N1CCCN(c2nc(Nc3ccc(F)cc3)cc(C(F)(F)F)n2)CC1 [Compound 1419]
target.under.test: AD38 cells
reported.result: 93

molecule: CCOC(=O)C(C)(C)Oc1ccc(S(=O)(=O)N2CCN(c3nc(C)cc(Nc4ccc(F)cc4)n3)CC2)cc1 [Compound 1404]
target.under.test: AD38 cells
reported.result: 96

molecule: N#Cc1ccc(Nc2cc(-c3cncs3)nc(N3CCN(S(=O)(=O)c4ccccc4)CC3)n2)cc1 [Compound 1374]
target.under.test: AD38 cells
reported.result: 107

molecule: O=C(O)c1ccc(S(=O)(=O)N2CCN(c3nc(Nc4ccc(F)cc4)cc(C(F)(F)F)n3)CC2)cc1 [Compound 1388]
target.under.test: AD38 cells
reported.result: 106

molecule: O=S(=O)(c1ccc(F)cc1)N1CCN(c2nc(Nc3ccc(F)cc3)cc(-c3nccs3)n2)CC1 [Compound 1362]
target.under.test: AD38 cells
reported.result: 88

molecule: CCOc1ccc(S(=O)(=O)N2CCN(c3nc(Nc4ccc(C#N)cc4)cc(C(F)(F)F)n3)CC2)cc1 [Compound 1333]
target.under.test: AD38 cells
reported.result: 85

molecule: COC(=O)c1ccc(S(=O)(=O)N2CCN(c3nc(C)cc(Nc4ccc(F)cc4)n3)CC2)cc1 [Compound 1382]
target.under.test: AD38 cells
reported.result: 107

molecule: COC(=O)CCCOc1ccc(S(=O)(=O)N2CCN(c3nc(Nc4ccc(F)cc4)cc(C(F)(F)F)n3)CC2)cc1 [Compound 1397]
target.under.test: AD38 cells
reported.result: 33

molecule: Cc1cc(Nc2ccc(F)cc2)nc(N2CCN(S(=O)(=O)c3ccc(C(=O)O)cc3)CC2)n1 [Compound 1381]
target.under.test: AD38 cells
reported.result: 107

molecule: Cc1cc(Nc2ccc(F)cc2)nc(N2CCN(S(=O)(=O)c3ccc(OC(C)(C)C(=O)O)cc3)CC2)n1 [Compound 1403]
target.under.test: AD38 cells
reported.result: 100

molecule: COC(=O)Cc1cccc(S(=O)(=O)N2CCN(c3nc(C)cc(Nc4ccc(F)cc4)n3)CC2)c1 [Compound 1412]
target.under.test: AD38 cells
reported.result: 109

molecule: CCCCOc1ccc(S(=O)(=O)N2CCN(c3nc(Nc4ccc(F)cc4)cc(C(F)(F)F)n3)CC2)cc1 [Compound 1342]
target.under.test: AD38 cells
reported.result: 107

molecule: N#Cc1ccc(Nc2cc(-c3cncs3)nc(N3CCN(S(=O)(=O)c4ccc(OC(F)(F)F)cc4)CC3)n2)cc1 [Compound 1372]
target.under.test: AD38 cells
reported.result: 109

molecule: CCOc1ccc(S(=O)(=O)N2CCN(c3nc(Nc4ccc(F)cc4)cc(-c4nccs4)n3)CC2)cc1 [Compound 1358]
target.under.test: AD38 cells
reported.result: 99

molecule: Cc1ccc(S(=O)(=O)N2CCN(c3nc(Nc4ccc(F)cc4)cc(-c4nccs4)n3)CC2)cc1 [Compound 1361]
target.under.test: AD38 cells
reported.result: 95

molecule: O=S(=O)(c1ccc(OC(F)(F)F)cc1)N1CCN(c2nc(Nc3ccc(F)cc3)cc(-c3nccs3)n2)CC1 [Compound 1357]
target.under.test: AD38 cells
reported.result: 95

molecule: N#Cc1ccc(Nc2cc(C(F)(F)F)nc(N3CCN(S(=O)(=O)c4ccc(OC(F)(F)F)cc4)CC3)n2)cc1 [Compound 1332]
target.under.test: AD38 cells
reported.result: 85

molecule: C[C@H](Oc1ccc(S(=O)(=O)N2CCN(c3nc(Nc4ccc(F)cc4)cc(C(F)(F)F)n3)CC2)cc1)C(=O)O [Compound 1410]
target.under.test: AD38 cells
reported.result: 58

molecule: O=S(=O)(c1ccc(C(F)(F)F)cc1)N1CCN(c2nc(Nc3ccc(F)cc3)cc(C(F)(F)F)n2)CC1 [Compound 1391]
target.under.test: AD38 cells
reported.result: 88

molecule: COc1ccc(S(=O)(=O)N2CCN(c3nc(C)cc(Nc4ccc(F)cc4)n3)CC2(C)C)cc1 [Compound 1370]
target.under.test: AD38 cells
reported.result: 114

----------
tested on: AD38 cells; test: AD38 viability normalized to DMSO control; format: cell-based; conditions: 10 μM compound, vs DMSO control; Table 9
recorded.metric: AD38 Viability Normalized Result (CPAM/DMSO %) at 10 μM

chemical.structure: Cc1cc(Nc2ccc(F)cc2)nc(N2CCN(S(=O)(=O)c3ccc(OCC(=O)O)cc3)CC2)n1
unit.annotation: %
reported.result: 91
--
chemical.structure: CCCCOc1ccc(S(=O)(=O)N2CCN(c3nc(Nc4ccc(C#N)cc4)cc(-c4cncs4)n3)CC2)cc1
unit.annotation: %
reported.result: 96
--
chemical.structure: Cc1cc(Nc2ccc(F)cc2)nc(N2CCN(S(=O)(=O)c3cccc(CC(=O)O)c3)CC2)n1
unit.annotation: %
reported.result: 102
--
chemical.structure: Cc1cc(Nc2ccc(F)cc2)nc(N2CCN(S(=O)(=O)c3ccc(OCCN4CCOCC4)cc3)CC2)n1
unit.annotation: %
reported.result: 94

----------
test system: HBV viral load, AD38 cells; assay: Activity of test compounds on viral production from AD38 cells (viral load by quantitative PCR of the core sequence in supernatant); type: cell-based, Hepatitis B virus; settings: Hepatitis B virus, 144 h, 10 μM compound, 6 days at 37° C., vs DMSO control wells; Table 6; read-out: AD38 Viral Load (CpAM/DMSO %) at 10 μM

compound: COc1ccc(S(=O)(=O)N2CCN(c3nc(Nc4ccc(C)cc4)cc(N4CCSCC4)n3)CC2)cc1 [Compound 1241]
unit.annotation: %
activity at 10 µM: 65
--
compound: N#Cc1ccc(Nc2cc(C(F)(F)F)nc(N3CCN(S(=O)(=O)c4ccc(F)cc4)CC3)n2)cc1 [Compound 1326]
unit.annotation: %
activity at 10 µM: 2
--
compound: COc1ccc(S(=O)(=O)N2CCN(c3nc(C)cc(Nc4nccs4)n3)CC2)cc1 [Compound 1233]
unit.annotation: %
activity at 10 µM: 87
--
compound: COc1ccc(S(=O)(=O)N2CCN(c3nc(C)cc(Nc4ccc(-c5ccccc5)cc4)n3)CC2)cc1 [Compound 1201]
unit.annotation: %
activity at 10 µM: 90
--
compound: COc1ccc(S(=O)(=O)N2CCN(c3nc(Nc4ccc(C)cc4)cc(N(C)C(C)(C)C)n3)CC2)cc1 [Compound 1273]
unit.annotation: %
activity at 10 µM: 16
--
compound: COc1ccc(S(=O)(=O)N2CCN(c3nc(Nc4ccc(C)cc4)cc(OCCO)n3)CC2)cc1 [Compound 1265]
unit.annotation: %
activity at 10 µM: 13
--
compound: COc1ccc(S(=O)(=O)N2CCN(c3nc(Nc4ccc(C)cc4)cc(N4CCN(C)CC4)n3)CC2)cc1 [Compound 1207]
unit.annotation: %
activity at 10 µM: 83
